Cited source: ChEMBL document CHEMBL1156725

# target: DNA-dependent protein kinase catalytic subunit (Homo sapiens)
# Sequence (P78527 whole entry): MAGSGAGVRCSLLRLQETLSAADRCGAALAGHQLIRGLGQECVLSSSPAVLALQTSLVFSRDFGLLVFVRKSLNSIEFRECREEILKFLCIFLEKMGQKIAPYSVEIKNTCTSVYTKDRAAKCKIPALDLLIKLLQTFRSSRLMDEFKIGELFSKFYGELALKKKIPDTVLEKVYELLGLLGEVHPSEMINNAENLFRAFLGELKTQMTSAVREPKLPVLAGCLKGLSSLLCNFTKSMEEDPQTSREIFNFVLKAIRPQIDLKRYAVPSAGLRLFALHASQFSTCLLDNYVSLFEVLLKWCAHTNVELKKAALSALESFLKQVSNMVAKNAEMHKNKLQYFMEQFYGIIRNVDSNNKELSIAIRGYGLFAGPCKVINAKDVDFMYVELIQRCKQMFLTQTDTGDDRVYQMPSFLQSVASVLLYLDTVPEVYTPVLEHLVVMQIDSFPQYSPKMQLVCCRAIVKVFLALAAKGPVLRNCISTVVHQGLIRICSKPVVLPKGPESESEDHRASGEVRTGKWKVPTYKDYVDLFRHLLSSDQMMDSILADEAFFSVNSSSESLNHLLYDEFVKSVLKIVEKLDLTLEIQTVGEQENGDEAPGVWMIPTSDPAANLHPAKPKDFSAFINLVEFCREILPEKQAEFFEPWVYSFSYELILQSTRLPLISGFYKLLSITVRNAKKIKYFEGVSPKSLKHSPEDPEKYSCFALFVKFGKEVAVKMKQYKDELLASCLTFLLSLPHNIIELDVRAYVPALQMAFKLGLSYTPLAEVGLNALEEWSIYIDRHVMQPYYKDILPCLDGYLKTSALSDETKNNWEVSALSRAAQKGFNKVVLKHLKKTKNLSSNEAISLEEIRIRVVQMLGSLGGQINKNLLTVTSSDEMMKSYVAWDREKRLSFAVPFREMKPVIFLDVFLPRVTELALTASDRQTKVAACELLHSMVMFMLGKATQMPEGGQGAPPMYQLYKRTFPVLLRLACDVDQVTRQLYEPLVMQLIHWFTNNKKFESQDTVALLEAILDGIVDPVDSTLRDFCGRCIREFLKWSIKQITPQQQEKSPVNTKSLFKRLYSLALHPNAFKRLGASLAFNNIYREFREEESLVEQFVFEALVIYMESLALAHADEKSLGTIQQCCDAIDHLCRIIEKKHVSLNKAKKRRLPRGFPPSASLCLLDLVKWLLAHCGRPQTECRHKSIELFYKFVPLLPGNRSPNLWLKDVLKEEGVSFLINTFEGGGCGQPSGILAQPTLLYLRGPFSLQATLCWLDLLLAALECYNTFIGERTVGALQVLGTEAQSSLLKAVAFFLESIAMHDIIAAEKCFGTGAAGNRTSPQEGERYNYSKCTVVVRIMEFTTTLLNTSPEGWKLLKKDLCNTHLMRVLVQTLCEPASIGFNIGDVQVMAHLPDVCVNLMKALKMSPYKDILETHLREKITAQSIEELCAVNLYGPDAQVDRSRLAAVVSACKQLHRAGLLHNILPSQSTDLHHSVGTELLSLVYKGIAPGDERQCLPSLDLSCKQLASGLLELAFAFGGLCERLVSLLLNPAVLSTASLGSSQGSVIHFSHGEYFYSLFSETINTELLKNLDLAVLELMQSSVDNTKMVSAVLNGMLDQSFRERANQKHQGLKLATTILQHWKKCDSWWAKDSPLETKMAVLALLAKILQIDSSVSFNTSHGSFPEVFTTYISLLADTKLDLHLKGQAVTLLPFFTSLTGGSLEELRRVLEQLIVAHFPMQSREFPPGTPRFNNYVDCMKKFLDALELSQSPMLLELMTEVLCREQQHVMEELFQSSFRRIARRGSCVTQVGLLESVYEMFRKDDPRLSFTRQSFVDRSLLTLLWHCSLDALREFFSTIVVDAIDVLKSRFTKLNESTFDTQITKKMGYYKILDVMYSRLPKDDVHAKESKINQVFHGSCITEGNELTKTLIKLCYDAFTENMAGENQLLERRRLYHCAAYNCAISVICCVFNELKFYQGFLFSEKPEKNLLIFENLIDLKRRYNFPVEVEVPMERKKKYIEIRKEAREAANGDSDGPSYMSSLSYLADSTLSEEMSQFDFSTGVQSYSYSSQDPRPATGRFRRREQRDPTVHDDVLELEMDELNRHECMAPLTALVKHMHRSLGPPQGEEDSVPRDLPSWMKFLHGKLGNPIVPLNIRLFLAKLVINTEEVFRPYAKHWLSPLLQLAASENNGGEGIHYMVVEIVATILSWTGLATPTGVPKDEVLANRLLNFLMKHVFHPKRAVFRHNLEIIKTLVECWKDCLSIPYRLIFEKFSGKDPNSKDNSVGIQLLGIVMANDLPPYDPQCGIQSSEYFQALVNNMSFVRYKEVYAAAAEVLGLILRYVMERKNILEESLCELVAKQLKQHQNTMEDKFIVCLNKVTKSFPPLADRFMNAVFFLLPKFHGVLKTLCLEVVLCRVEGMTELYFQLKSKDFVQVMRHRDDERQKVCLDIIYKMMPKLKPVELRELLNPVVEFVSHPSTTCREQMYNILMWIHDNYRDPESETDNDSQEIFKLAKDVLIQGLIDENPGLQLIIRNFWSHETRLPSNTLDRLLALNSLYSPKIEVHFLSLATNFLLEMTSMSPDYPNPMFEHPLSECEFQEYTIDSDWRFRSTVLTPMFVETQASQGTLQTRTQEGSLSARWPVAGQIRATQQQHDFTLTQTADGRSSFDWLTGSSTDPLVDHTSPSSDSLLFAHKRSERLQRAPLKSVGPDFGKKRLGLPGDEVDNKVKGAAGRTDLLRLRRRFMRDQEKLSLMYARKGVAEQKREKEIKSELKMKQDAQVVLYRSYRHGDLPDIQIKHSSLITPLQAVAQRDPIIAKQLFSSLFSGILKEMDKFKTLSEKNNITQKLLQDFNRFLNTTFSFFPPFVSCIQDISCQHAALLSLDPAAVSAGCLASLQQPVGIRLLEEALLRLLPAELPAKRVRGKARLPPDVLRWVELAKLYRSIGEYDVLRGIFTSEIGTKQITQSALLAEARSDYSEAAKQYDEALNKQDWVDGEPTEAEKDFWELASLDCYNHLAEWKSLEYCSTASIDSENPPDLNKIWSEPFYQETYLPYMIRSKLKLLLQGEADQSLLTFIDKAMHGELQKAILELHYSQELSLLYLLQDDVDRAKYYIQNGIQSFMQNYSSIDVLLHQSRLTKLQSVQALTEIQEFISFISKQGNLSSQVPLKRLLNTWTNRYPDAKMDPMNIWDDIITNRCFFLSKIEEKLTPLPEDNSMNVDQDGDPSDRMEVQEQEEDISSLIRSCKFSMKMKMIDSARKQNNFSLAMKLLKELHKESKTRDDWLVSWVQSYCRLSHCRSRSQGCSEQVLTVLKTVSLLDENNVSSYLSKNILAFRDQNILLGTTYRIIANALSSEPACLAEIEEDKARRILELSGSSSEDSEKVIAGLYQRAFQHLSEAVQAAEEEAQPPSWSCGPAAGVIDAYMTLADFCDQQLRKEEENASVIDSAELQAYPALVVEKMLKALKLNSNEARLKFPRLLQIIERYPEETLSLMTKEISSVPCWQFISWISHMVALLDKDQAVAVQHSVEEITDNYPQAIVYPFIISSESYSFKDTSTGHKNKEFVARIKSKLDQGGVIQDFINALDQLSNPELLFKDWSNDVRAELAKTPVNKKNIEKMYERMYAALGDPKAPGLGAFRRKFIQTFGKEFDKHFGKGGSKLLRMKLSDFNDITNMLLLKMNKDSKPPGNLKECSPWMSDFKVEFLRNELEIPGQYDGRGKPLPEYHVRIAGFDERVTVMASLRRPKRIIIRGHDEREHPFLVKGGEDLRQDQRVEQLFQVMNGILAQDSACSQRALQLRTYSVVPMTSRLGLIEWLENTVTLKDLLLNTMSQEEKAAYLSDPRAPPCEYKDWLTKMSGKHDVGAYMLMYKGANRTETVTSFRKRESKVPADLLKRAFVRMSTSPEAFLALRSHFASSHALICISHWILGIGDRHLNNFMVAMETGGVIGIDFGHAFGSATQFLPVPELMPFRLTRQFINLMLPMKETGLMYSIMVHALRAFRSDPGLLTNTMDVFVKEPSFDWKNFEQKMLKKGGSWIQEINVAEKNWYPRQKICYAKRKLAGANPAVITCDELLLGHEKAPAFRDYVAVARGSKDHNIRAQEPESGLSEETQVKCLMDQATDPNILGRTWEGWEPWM
# assay info: Inhibition of DNA-dependent protein kinase
pIC50: −log10 of the molar value.
attribute measured: pIC50

In [3]: df
Out[3]:
                           smiles_structure  attribute_measured  reported
0  O=c1cc(N2CCOCC2)oc2c(-c3ncc(-c4ccccc4)s3)cccc12               pIC50      6.43

A. O=c1cc(N2CCOCC2)oc2c(-c3ccc(-c4ccccc4)s3)cccc12
B. O=c1cc(N2CCOCC2)oc2c(-c3cccc(-c4ccccc4)c3)cccc12
C. O=c1cc(N2CCOCC2)oc2c(-c3cccc4c3sc3ccccc34)cccc12
D. O=c1cc(N2CCOCC2)oc2c(-c3cc(-c4ccccc4)cs3)cccc12
Q: Reorder: pIC50, max to min. Submit the labels in the order that the ranking request calls for.
A: C, D, B, A
